From: patent US20210130452A1

Assayed system: T1, human IL-17A/F heterodimer (human, UniProt Q16552 24-155; Q96PD4 31-163, limits assumed)
T1 construct: bought, made in E. coli (R&D Systems 5194-IL/CF); also called hIL-17A/F; hIL17A/F
T1 sequence (Q16552 24-155 limits assumed, chain 1 of 2): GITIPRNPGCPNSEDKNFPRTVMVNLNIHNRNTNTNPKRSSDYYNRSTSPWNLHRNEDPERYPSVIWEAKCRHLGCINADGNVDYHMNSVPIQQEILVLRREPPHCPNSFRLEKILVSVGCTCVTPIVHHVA
T1 sequence (Q96PD4 31-163 limits assumed, chain 2 of 2): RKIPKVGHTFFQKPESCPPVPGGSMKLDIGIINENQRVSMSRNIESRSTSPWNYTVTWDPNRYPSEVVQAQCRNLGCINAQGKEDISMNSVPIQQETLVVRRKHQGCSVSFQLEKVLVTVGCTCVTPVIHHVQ
Experimental protocol: SPR (Biacore) off-rate
Attribute: koff

Binder: IL17MS3037 (VHH, variant of IL17MS13E02; Kabat numbering) VHH: EVQLVESGGGLVQAGGSLRLSCAASGRTYDAMGWLRQAPGKEREFVAAISGSGDDTYYADSVKGRFTISKDNAGITMYLQMNSLKPEDTAVYYCATRRGLYYVWDANDYENWGQGTQVTVSS
koff: 4.67e-05 s⁻¹

Binder: IL17MS3019 (VHH, variant of IL17MS13E02; Kabat numbering) VHH: EVQLVESGGGLVQPGGSLRLSCAASGRTYDAMGWFRQAPGKEREFVAAISGSGDDTYYADSVKGRFTISKDNSGITMYLQMNSLRPEDTAVYYCATRRGLYYVWDSNDYENWGQGTLVTVSS
koff: 0.00031 s⁻¹

Binder: IL17MS3018 (VHH, basic variant of IL17MS13E02; Kabat numbering; also called IL17MS3018 basic) VHH: EVQLVESGGGLVQPGGSLRLSCAASGRTYDAMGWLRQAPGKEREFVAAISGSGDDTYYADSVKGRFTISKDNSGITMYLQMNSLRPEDTAVYYCATRRGLYYVWDSNDYENWGQGTLVTVSS
koff: 1.38e-05 s⁻¹

Binder: IL17MS13E02 (VHH, Class 4 Nanobody, wild type; also called WT) VHH: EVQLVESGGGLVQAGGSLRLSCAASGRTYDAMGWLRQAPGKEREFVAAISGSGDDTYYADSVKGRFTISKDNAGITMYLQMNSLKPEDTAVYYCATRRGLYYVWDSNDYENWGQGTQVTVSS
koff: 3.97e-05 s⁻¹
